system: Brucella pseudogrignonensis; experiment: Antibacterial activity against Ochrobactrum pseudogrignonense 21-6PIN at 30 ug/disk after 24 to 48 hrs by disk diffusion method; format: functional; settings: read-out: DIZ
Consider the following molecules; for each one, report its zone of inhibition at 30 µg/disc.
State just the number; it will be interpreted in mm.

Query zone of inhibition at 30 µg/disc for C=C(C)[C@@H]1C/C=C(/C=O)CC[C@H]2O[C@]2(C)CC/C=C(\C)CC1 [KNIGHTAL] 6

Look up and state reported zone of inhibition at 30 µg/disc for C=C(C)[C@H]1CC/C(C)=C/CC[C@@]2(C)O[C@@H]2CC/C(CO)=C\[C@@H]1O [ASPERDIOL] 8

Report measured zone of inhibition at 30 µg/disc; entry is C=C(C)[C@@H]1C/C=C(/COC(C)=O)CC[C@H]2O[C@]2(C)CC/C=C(\C)CC1 [KNIGHTOL ACETATE] 6

Give zone of inhibition at 30 µg/disc for the following molecule: C=C(C)[C@H]1CC/C(C)=C/C/C=C(\C)[C@H](O)CC/C(COC(C)=O)=C\[C@@H]1OC(C)=O 8

Provide zone of inhibition at 30 µg/disc value for the following molecule: C=C(C)[C@@H]1C/C=C(/CO)CC[C@H]2O[C@]2(C)CC/C=C(\C)CC1 [KNIGHTOL] 6

Indicate its recorded zone of inhibition at 30 µg/disc; the molecule in question is C=C1CC/C=C(\C)CC[C@H](C(=C)C)[C@@H](OC(C)=O)/C=C(/COC(C)=O)CC[C@H]1O 6
